B1: TRAF3IP2 (parent)
chain: APWNYHYHCPGSPDHQVPYGHDYP

# Variants of: B1
# assay_summary: protein stability index of a GFP-peptide fusion (GPS, HEK-293T) (PSI 1-6); higher = more stable;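 further: lentivirally expressed fusions sorted by FACS into six bins by GFP to DsRed ratio, PSI derived from sequencing read proportions per bin multiplied by bin number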
# experimental_setup: c terminus: a fixed tail appended
// condition not met strictly below 2 in protein stability index; condition met otherwise

P10D condition met
H15I condition met
Y5L condition met
D14M condition not met
H21V condition not met
N4L condition met
W3M condition met
P10T condition not met
A1S condition met
P24G condition not met

Does P2Q have a reported protein stability index of at least 2?
condition met

Does D14I have a reported protein stability index of at least 2?
condition met

Does H8I have a reported protein stability index of at least 2?
condition met

Does N4C have a reported protein stability index of at least 2?
condition met

Does P13Y have a reported protein stability index of at least 2?
condition not met

Does N4Y have a reported protein stability index of at least 2?
condition met

Does S12Q have a reported protein stability index of at least 2?
condition met

Does Y5R have a reported protein stability index of at least 2?
condition met

Does P2E have a reported protein stability index of at least 2?
condition met

Does S12Y have a reported protein stability index of at least 2?
condition met

All figures here come from the supplement of paper PMC10567573.
